Molecular target: Amine oxidase [flavin-containing] A (Homo sapiens, UniProt P21397)
Sequence (P21397 whole entry): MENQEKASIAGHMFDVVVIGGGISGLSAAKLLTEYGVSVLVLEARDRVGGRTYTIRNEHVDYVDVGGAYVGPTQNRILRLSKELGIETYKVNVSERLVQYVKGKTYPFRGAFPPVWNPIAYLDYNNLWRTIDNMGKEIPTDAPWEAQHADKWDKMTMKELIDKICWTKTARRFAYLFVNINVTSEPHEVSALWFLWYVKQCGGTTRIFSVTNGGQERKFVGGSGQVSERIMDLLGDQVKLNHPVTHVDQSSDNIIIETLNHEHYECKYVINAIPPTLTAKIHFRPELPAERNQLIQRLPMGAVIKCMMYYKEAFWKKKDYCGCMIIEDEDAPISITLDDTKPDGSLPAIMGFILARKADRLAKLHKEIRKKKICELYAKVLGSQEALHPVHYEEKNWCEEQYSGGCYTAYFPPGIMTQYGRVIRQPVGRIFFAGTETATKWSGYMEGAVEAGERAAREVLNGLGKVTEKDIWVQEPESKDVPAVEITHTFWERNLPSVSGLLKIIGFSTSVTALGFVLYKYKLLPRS
Test: Competitive inhibition of human MAO-A expressed in BTI insect cells using p-tyramine as substrate after 60 mins
Conditions: 1 h
measurement kind: inhibition (INH)

>  <compound>
COc1ccc(NC(=S)N2N=C(c3ccccc3)CC2c2ccc(O)cc2)cc1 (configuration not stated)

>  <target or system>
Amine oxidase [flavin-containing] A (Homo sapiens, UniProt P21397)

>  <meas value>
Active

$$$$
>  <compound>
Cc1ccc(C2CC(c3ccccc3)=NN2C(=N)N)cc1 (configuration not stated)

>  <target or system>
Amine oxidase [flavin-containing] A (Homo sapiens, UniProt P21397)

>  <meas value>
Active

$$$$
>  <compound>
COc1ccc(C2CC(c3ccccc3)=NN2C(N)=O)cc1 (configuration not stated)

>  <target or system>
Amine oxidase [flavin-containing] A (Homo sapiens, UniProt P21397)

>  <meas value>
Active

$$$$
>  <compound>
COc1cccc(NC(=S)N2N=C(c3ccccc3)CC2c2ccccc2O)c1 (configuration not stated)

>  <target or system>
Amine oxidase [flavin-containing] A (Homo sapiens, UniProt P21397)

>  <meas value>
Active

$$$$
>  <compound>
Cc1ccc(NC(=S)N2N=C(c3ccccc3)CC2c2ccccc2O)cc1 (configuration not stated)

>  <target or system>
Amine oxidase [flavin-containing] A (Homo sapiens, UniProt P21397)

>  <meas value>
Active

$$$$

Query string: Which measured inhibition (INH) belongs to `C#CCN(C)[C@H](C)Cc1ccccc1` , tested on Amine oxidase [flavin-containing] A (Homo sapiens, UniProt P21397)?
Result string: Active

Query string: Which measured inhibition (INH) belongs to NC(=S)N1N=C(c2ccccc2)CC1c1ccncc1 (configuration not stated) , tested on Amine oxidase [flavin-containing] A (Homo sapiens, UniProt P21397)?
Result string: Active

Query string: Which measured inhibition (INH) belongs to N=C(N)N1N=C(c2ccccc2)CC1c1ccc(Cl)cc1 (configuration not stated) , tested on Amine oxidase [flavin-containing] A (Homo sapiens, UniProt P21397)?
Result string: Active

Query string: Which measured inhibition (INH) belongs to NC(=O)N1N=C(c2ccccc2)CC1c1ccncc1 (configuration not stated) , tested on Amine oxidase [flavin-containing] A (Homo sapiens, UniProt P21397)?
Result string: Active

Query string: Which measured inhibition (INH) belongs to Cc1ccccc1NC(=S)N1N=C(c2ccccc2)CC1c1ccc(O)cc1 (configuration not stated) , tested on Amine oxidase [flavin-containing] A (Homo sapiens, UniProt P21397)?
Result string: Active

Query string: Which measured inhibition (INH) belongs to N=C(N)N1N=C(c2ccccc2)CC1c1ccncc1 (configuration not stated) , tested on Amine oxidase [flavin-containing] A (Homo sapiens, UniProt P21397)?
Result string: Active

Query string: Which measured inhibition (INH) belongs to COc1ccccc1NC(=S)N1N=C(c2ccccc2)CC1c1ccccc1O (configuration not stated) , tested on Amine oxidase [flavin-containing] A (Homo sapiens, UniProt P21397)?
Result string: Active

Query string: Which measured inhibition (INH) belongs to NC(=O)N1N=C(c2ccccc2)CC1c1ccc(Cl)cc1 (configuration not stated) , tested on Amine oxidase [flavin-containing] A (Homo sapiens, UniProt P21397)?
Result string: Active

Query string: Which measured inhibition (INH) belongs to Cc1cccc(NC(=S)N2N=C(c3ccccc3)CC2c2ccc(O)cc2)c1 (configuration not stated) , tested on Amine oxidase [flavin-containing] A (Homo sapiens, UniProt P21397)?
Result string: Active

Query string: Which measured inhibition (INH) belongs to COc1ccccc1NC(=S)N1N=C(c2ccccc2)CC1c1ccc(O)cc1 (configuration not stated) , tested on Amine oxidase [flavin-containing] A (Homo sapiens, UniProt P21397)?
Result string: Active

Query string: Which measured inhibition (INH) belongs to O=C(NCCN1CCOCC1)c1ccc(Cl)cc1 [MOCLOBEMIDE] , tested on Amine oxidase [flavin-containing] A (Homo sapiens, UniProt P21397)?
Result string: Active

Query string: Which measured inhibition (INH) belongs to COc1cccc(NC(=S)N2N=C(c3ccccc3)CC2c2ccc(O)cc2)c1 (configuration not stated) , tested on Amine oxidase [flavin-containing] A (Homo sapiens, UniProt P21397)?
Result string: Active

Query string: Which measured inhibition (INH) belongs to COc1ccc(NC(=S)N2N=C(c3ccccc3)CC2c2ccccc2O)cc1 (configuration not stated) , tested on Amine oxidase [flavin-containing] A (Homo sapiens, UniProt P21397)?
Result string: Active

Query string: Which measured inhibition (INH) belongs to Cc1ccccc1NC(=S)N1N=C(c2ccccc2)CC1c1ccccc1O (configuration not stated) , tested on Amine oxidase [flavin-containing] A (Homo sapiens, UniProt P21397)?
Result string: Active

Query string: Which measured inhibition (INH) belongs to Cc1ccc(NC(=S)N2N=C(c3ccccc3)CC2c2ccc(O)cc2)cc1 (configuration not stated) , tested on Amine oxidase [flavin-containing] A (Homo sapiens, UniProt P21397)?
Result string: Active

Query string: Which measured inhibition (INH) belongs to Cc1cccc(NC(=S)N2N=C(c3ccccc3)CC2c2ccccc2O)c1 (configuration not stated) , tested on Amine oxidase [flavin-containing] A (Homo sapiens, UniProt P21397)?
Result string: Active

Query string: Which measured inhibition (INH) belongs to Cc1ccc(C2CC(c3ccccc3)=NN2C(N)=O)cc1 (configuration not stated) , tested on Amine oxidase [flavin-containing] A (Homo sapiens, UniProt P21397)?
Result string: Active
